- Assayed system: human μ opiate receptor (Homo sapiens, UniProt P35372)
- Construct: purchased PerkinElmer Life Sciences, Zaventem, Belgium RB-HOM; host or cells: CHO-K1 cells (membrane preparation)
- Sequence (P35372 whole entry): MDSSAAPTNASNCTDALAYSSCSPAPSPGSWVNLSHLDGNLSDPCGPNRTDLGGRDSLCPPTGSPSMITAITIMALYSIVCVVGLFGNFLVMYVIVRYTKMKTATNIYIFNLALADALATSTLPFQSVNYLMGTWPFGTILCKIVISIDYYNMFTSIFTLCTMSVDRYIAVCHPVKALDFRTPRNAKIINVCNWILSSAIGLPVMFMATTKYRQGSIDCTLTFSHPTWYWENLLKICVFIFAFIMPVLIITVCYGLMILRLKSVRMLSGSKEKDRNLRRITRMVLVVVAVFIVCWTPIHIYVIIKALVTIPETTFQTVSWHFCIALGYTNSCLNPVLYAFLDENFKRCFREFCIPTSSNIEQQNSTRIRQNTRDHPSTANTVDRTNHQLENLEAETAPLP
- Assay details: Affinity for the human μ opiate receptor ([3H]-naloxone displacement, CHO-K1 receptor membrane preparation, SPA)
- Assay type: binding
- Condition label: test concentration of 1 μM; read-out: μ (binding on the μ opioid receptor, % inhibition)
Property measured: inhibition at 1 µM (%)

Compound: CN(C)C(c1cccs1)C1CCC(NC(=O)COCCN(Cc2ccccc2)S(=O)(=O)c2ccccc2)CC1 (stereo not shown)
Reported: 86
//
Compound: CCN(CCOCC(=O)NCC1CCC(C(c2cccs2)N(C)C)CC1)S(=O)(=O)c1c(C)cc(OC)c(C)c1C (stereo not shown)
Reported: 98
//
Compound: CN(C)C(c1cccs1)C1CCC(CCNC(=O)COCCN(C)S(=O)(=O)c2ccc(OC(F)(F)F)cc2)CC1 (stereo not shown)
Reported: 96
//
Compound: Cc1cc(C)c(S(=O)(=O)N2CCC(OCC(=O)NC3CCC(C(c4cccc(F)c4)N(C)C)CC3)C2)c(C)c1 (stereo not shown)
Reported: 83

* * *

- Assayed system: human bradykinin 1 receptor (B1R) (Homo sapiens)
- Construct: expressed in transfected cells; host or cells: CHO K1 cells
- Sequence (P46663 whole entry): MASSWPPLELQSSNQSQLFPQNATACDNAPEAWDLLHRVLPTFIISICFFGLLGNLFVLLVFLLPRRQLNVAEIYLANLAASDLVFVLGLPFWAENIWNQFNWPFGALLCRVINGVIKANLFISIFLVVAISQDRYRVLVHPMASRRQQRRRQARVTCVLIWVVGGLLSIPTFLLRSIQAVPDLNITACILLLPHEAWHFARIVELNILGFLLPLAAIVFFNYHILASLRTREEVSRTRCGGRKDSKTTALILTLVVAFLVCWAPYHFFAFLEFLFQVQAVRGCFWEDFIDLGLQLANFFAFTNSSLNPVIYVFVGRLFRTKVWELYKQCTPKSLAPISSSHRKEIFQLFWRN
- Assay details: Functional investigation on the human bradykinin 1 receptor (B1R), Ca2+ FLIPR assay in CHO K1 hB1R cells
- Format: cell-based
- Condition label: CHO-K1, B1R antagonism human; test substance 10 μM; Ca2+ FLIPR, CHO K1 hB1R cells; read-out: B1R Ant. h [10 μM] % Inhibition
- Excerpt: Functional Investigation on the Human Bradykinin 1 Receptor (B1R) The agonistic or antagonistic action of substances can be determined on the bradykinin 1 receptor (B1R) of the human species and rats with the following assay. In accordance with this assay, the Ca^2+ inflow through the channel is quantified with the aid of a Ca^2=-sensitive dyestuff (type Fluo-4, Molecular Probes Europe BV, Leiden, Holland) in a fluorescent imaging plate reader (FLIPR, Molecular Devices, Sunnyvale, USA). […]
Property measured: inhibition at 10 µM (%)

Compound: O=C(COCC1CCCN1S(=O)(=O)c1c(Cl)cc(Cl)cc1Cl)NCC1CCC(C(CCc2ccccc2)N2CCCC2)CC1 (stereo not shown) [Example 752]
Reported: 103

Compound: COc1ccc(-c2noc(C(=O)NCCC(=O)NC3CCC(C(c4ccccc4)N(C)C)CC3)n2)cc1OC (stereo not shown) [Example 774]
Reported: -8

Compound: COc1cc(C)c(S(=O)(=O)N2CCCC(OCC(=O)NCC3CCC(C(c4ccccc4)N(C)C)CC3)C2)c(C)c1C (stereo not shown) [Example 29]
Reported: 35

Compound: COc1cc(C)c(S(=O)(=O)N2CCCC(OCC(=O)NC3CCC(C(CCc4ccccc4)N4CCOCC4)CC3)C2)c(C)c1 (stereo not shown) [Example 674]
Reported: 61

Compound: CN(C)C(CCc1ccccc1)C1CCC(NC(=O)CNC(=O)c2nc(-c3ccc(C(F)(F)F)cc3)no2)CC1 (stereo not shown) [Example 785]
Reported: 76

Compound: COc1cc(C)c(S(=O)(=O)N2CCCC(OCC(=O)NC3CCC(C(c4ccccc4)N4CCOCC4)CC3)C2)c(C)c1 (stereo not shown) [Example 693]
Reported: 26

Compound: COc1ccc(S(=O)(=O)N2CCCC2COCC(=O)NC2CCC(C(c3ccccc3)N(C)C)CC2)cc1 (stereo not shown) [Example 182]
Reported: 9

Compound: CN(C)C(c1cccs1)C1CCC(CCNC(=O)COCCN(Cc2ccccc2)S(=O)(=O)c2ccccc2)CC1 (stereo not shown) [Example 116]
Reported: 28

Compound: Cc1ccc(F)cc1-c1noc(C(=O)NCC(=O)NC2CCC(C(c3ccccc3)N(C)C)CC2)n1 (stereo not shown) [Example 767]
Reported: 43

Compound: Cc1cc(C)c(S(=O)(=O)N2CCC(OCC(=O)NC3CCC(C(c4cccs4)N(C)C)CC3)C2)c(C)c1 (stereo not shown) [Example 12]
Reported: 41

Compound: CN(C)C(c1ccccc1)C1CCC(NC(=O)CCNC(=O)c2nc(-c3ccc4c(c3)OCO4)no2)CC1 (stereo not shown) [Example 768]
Reported: -3

Compound: CN(C)C(c1cccs1)C1CCC(CNC(=O)COC2CCN(S(=O)(=O)c3ccc(Cl)cc3)C2)CC1 (stereo not shown) [Example 54]
Reported: 10

Compound: CN(C)C(c1cccc(F)c1)C1CCC(CCNC(=O)COCCN(C)S(=O)(=O)c2c(Cl)cccc2Cl)CC1 (stereo not shown) [Example 41]
Reported: 91

Compound: CN(C)C(CCc1ccccc1)C1CCC(NC(=O)CNC(=O)c2nc(-c3ccc(Cl)cc3Cl)no2)CC1 (stereo not shown) [Example 795]
Reported: 103

Compound: O=C(COCC1CCCN(S(=O)(=O)c2c(Cl)cc(Cl)cc2Cl)C1)NCC1CCC(C(CCc2ccccc2)N2CCOCC2)CC1 (stereo not shown) [Example 758]
Reported: 41

Compound: CN(C)C(c1cccs1)C1CCC(CCNC(=O)COCC2CCCN(S(=O)(=O)c3ccccc3)C2)CC1 (stereo not shown) [Example 115]
Reported: 10

Compound: O=C(COCC1CCCN1S(=O)(=O)c1c(Cl)cc(Cl)cc1Cl)NCC1CCC(C(CCc2ccccc2)N2CCOCC2)CC1 (stereo not shown) [Example 751]
Reported: 45

Compound: COc1cc(C)c(S(=O)(=O)N2CCCC(COCC(=O)NC3CCC(C(CCc4ccccc4)N4CCCCC4)CC3)C2)c(C)c1 (stereo not shown) [Example 740]
Reported: 79

Compound: COc1cc(C)c(S(=O)(=O)N2CCC(OCC(=O)NC3CCC(C(c4cccc(F)c4)N(C)C)CC3)C2)c(C)c1C (stereo not shown) [Example 189]
Reported: 47

Compound: COc1ccc(S(=O)(=O)N2CCCC2COCC(=O)NCCC2CCC(C(c3cccs3)N(C)C)CC2)cc1 (stereo not shown) [Example 77]
Reported: 41

Compound: COc1ccc(S(=O)(=O)N2CCCCC2COCC(=O)NCCC2CCC(C(c3cccc(F)c3)N(C)C)CC2)cc1 (stereo not shown) [Example 180]
Reported: 62

Compound: COc1ccc(S(=O)(=O)N2Cc3ccccc3CC2COCC(=O)NCCC2CCC(C(c3cccs3)N(C)C)CC2)cc1 (stereo not shown) [Example 48]
Reported: 33

Compound: COc1ccc(S(=O)(=O)N2CCC(OCC(=O)NCC3CCC(C(c4ccccc4)N(C)C)CC3)C2)cc1OC (stereo not shown) [Example 22]
Reported: 0

Compound: COc1cc(C)c(S(=O)(=O)N(C)CCOCC(=O)NC2CCC(C(c3cccc(F)c3)N(C)C)CC2)c(C)c1C (stereo not shown) [Example 159]
Reported: 91

Compound: CN(CCOCC(=O)NCC1CCC(C(c2ccccc2)N2CCOCC2)CC1)S(=O)(=O)c1c(Cl)cc(Cl)cc1Cl (stereo not shown) [Example 639]
Reported: 53

Compound: Cc1cc(C)c(S(=O)(=O)N2CCC(OCC(=O)NC3CCC(C(c4ccccc4)N(C)C)CC3)C2)c(C)c1 (stereo not shown) [Example 64]
Reported: 60

Compound: COc1cc(C)c(S(=O)(=O)N2CCCC(OCC(=O)NC3CCC(C(CCc4ccccc4)N4CCCCC4)CC3)C2)c(C)c1 (stereo not shown) [Example 675]
Reported: 97

Compound: COc1cc(C)c(S(=O)(=O)N(CCOCC(=O)NC2CCC(C(c3ccccc3)N(C)C)CC2)Cc2ccccc2)c(C)c1C (stereo not shown) [Example 193]
Reported: 97
